// log10(IC50) collected for Glucocorticoid receptor (Homo sapiens)
The common logarithm of IC50 in nM is what is listed.

Reference set, count: 4
INSERT INTO results (compound, measured_attribute, reported_measurement) VALUES
  ('Cc1noc(=O)c2ccc(NC(=O)C(O)(CC3CCCc4ccc([N+](=O)[O-])cc43)C(F)(F)F)cc12 (stereo not given)', 'log10(IC50)', 1.30),
  ('Cc1noc(=O)c2ccc(NC(=O)C(O)(CC3(c4ccccc4)CCCc4ccccc43)C(F)(F)F)cc12 (stereo not given)', 'log10(IC50)', 1.16),
  ('Cc1noc(=O)c2ccc(NC(=O)C(O)(CC3CCCc4c(Br)cccc43)C(F)(F)F)cc12 (stereo in doubt; 23f)', 'log10(IC50)', 2.80),
  ('CCCCC1(CC(O)(C(=O)Nc2ccc3c(=O)onc(C)c3c2)C(F)(F)F)CCCc2ccccc21 (stereo not given)', 'log10(IC50)', 0.49);

# value of log10(IC50), Glucocorticoid receptor (Homo sapiens), item Cc1noc(=O)c2ccc(NC(=O)C(O)(CC3(C)CCCc4ccccc43)C(F)(F)F)cc12 (stereo in doubt; 35a) = 2.50

====

Target or system Glucocorticoid receptor (Homo sapiens, UniProt P04150); recorded quantity log10 IC50.
Please keep in mind that the values are log10 of IC50 expressed in nM.

INSERT INTO measurements (compound, study_target, reported_measurement) VALUES
  ('CCC1(CC(O)(C(=O)Nc2ccc3c(=O)onc(C)c3c2)C(F)(F)F)CCCc2ccccc21 (stereo not drawn)', 'Glucocorticoid receptor (Homo sapiens, UniProt P04150)', 2.30),
  ('CCC1(CC(O)(C(=O)Nc2ccc3c(=O)onc(C)c3c2)C(F)(F)F)CCCc2cc([N+](=O)[O-])ccc21 (stereo not drawn)', 'Glucocorticoid receptor (Homo sapiens, UniProt P04150)', 2.90),
  ('Cc1noc(=O)c2ccc(NC(=O)C(O)(CC3(C(C)(C)C)CCCc4ccccc43)C(F)(F)F)cc12 (stereo not drawn)', 'Glucocorticoid receptor (Homo sapiens, UniProt P04150)', 2.89),
  ('Cc1noc(=O)c2ccc(NC(=O)C(O)(CC3(C(C)C)CCCc4ccccc43)C(F)(F)F)cc12 (stereo not drawn)', 'Glucocorticoid receptor (Homo sapiens, UniProt P04150)', 2.11),
  ('Cc1noc(=O)c2ccc(NC(=O)C(O)(CC3(C4CC4)CCCc4ccccc43)C(F)(F)F)cc12 (stereo not drawn)', 'Glucocorticoid receptor (Homo sapiens, UniProt P04150)', 2.31),
  ('Cc1noc(=O)c2ccc(NC(=O)C(O)(CC3(c4ccccc4)CCCc4ccccc43)C(F)(F)F)cc12 (stereo not drawn)', 'Glucocorticoid receptor (Homo sapiens, UniProt P04150)', 3.14),
  ('CCC(CC)C1(CC(O)(C(=O)Nc2ccc3c(=O)onc(C)c3c2)C(F)(F)F)CCCc2ccccc21 (stereo not drawn)', 'Glucocorticoid receptor (Homo sapiens, UniProt P04150)', 1.82);

Now turn to the next compound.
So the reported log10 IC50 for Cc1noc(=O)c2ccc(NC(=O)C(O)(CC3CCCc4c(Cl)cccc43)C(F)(F)F)cc12 (stereo in doubt; 20b) , on Glucocorticoid receptor (Homo sapiens, UniProt P04150), turned out to be 2.60

====

biological target: Glucocorticoid receptor (Homo sapiens)
Sequence (P04150 whole entry): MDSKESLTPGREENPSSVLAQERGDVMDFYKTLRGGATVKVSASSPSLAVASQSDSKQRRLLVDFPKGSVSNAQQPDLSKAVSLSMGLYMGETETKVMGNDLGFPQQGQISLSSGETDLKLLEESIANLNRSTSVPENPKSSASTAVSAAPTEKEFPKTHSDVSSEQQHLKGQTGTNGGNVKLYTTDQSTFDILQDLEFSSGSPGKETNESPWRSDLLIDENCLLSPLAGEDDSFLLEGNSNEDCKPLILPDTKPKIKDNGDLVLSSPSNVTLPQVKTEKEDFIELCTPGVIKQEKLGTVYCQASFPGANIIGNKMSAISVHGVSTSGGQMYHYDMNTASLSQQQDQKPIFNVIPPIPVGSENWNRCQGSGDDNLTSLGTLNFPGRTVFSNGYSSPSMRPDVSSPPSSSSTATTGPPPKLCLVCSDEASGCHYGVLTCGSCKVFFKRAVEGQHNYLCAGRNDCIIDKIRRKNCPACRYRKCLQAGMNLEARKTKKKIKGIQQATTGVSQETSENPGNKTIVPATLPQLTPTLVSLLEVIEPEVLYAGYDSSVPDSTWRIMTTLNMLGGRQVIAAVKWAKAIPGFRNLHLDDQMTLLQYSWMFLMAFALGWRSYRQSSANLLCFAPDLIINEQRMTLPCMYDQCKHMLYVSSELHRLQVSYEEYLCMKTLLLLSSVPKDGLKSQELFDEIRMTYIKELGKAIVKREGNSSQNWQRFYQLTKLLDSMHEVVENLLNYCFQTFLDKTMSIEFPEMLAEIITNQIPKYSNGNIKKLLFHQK
Hi! Just check whether EC50 is below 20 nM. Below gives 1 (yes), equal or above gives 0 (no).

INSERT INTO results (compound, class_label) VALUES
  ('Cc1noc(=O)c2ccc(NC(=O)C(O)(CC3(C4CC4)CCCc4ccccc43)C(F)(F)F)cc12 (configuration not stated)', '0 (no)'),
  ('CCC1(CC(O)(C(=O)Nc2ccc3c(=O)onc(C)c3c2)C(F)(F)F)CCCc2ccccc21 (configuration not stated)', '1 (yes)'),
  ('Cc1noc(=O)c2ccc(NC(=O)C(O)(CC3(CC(C)C)CCCc4ccccc43)C(F)(F)F)cc12 (configuration not stated)', '0 (no)'),
  ('Cc1noc(=O)c2ccc(NC(=O)[C@](O)(C[C@@]3(C4CCCC4)CCCc4ccccc43)C(F)(F)F)cc12', '1 (yes)'),
  ('Cc1noc(=O)c2ccc(NC(=O)C(O)(CC3(C)CCCc4ccccc43)C(F)(F)F)cc12 (stereo in doubt; 35d)', '0 (no)'),
  ('Cc1noc(=O)c2ccc(NC(=O)C(O)(CC3(C4CCC4)CCCc4ccccc43)C(F)(F)F)cc12 (configuration not stated)', '1 (yes)'),
  ('CCCCC1(CC(O)(C(=O)Nc2ccc3c(=O)onc(C)c3c2)C(F)(F)F)CCCc2ccccc21 (configuration not stated)', '0 (no)'),
  ('Cc1noc(=O)c2ccc(NC(=O)C(O)(CC3(C(C)C)CCCc4ccccc43)C(F)(F)F)cc12 (configuration not stated)', '1 (yes)');

Q: Find out if reported EC50 for CCC1(CC(O)(C(=O)Nc2ccc3c(=O)onc(C)c3c2)C(F)(F)F)CCCCc2ccccc21 (configuration not stated) is less than 20 nM
Ans: 0 (no)

Q: Please indicate whether the reported EC50 of CCC(CC)C1(CC(O)(C(=O)Nc2ccc3c(=O)onc(C)c3c2)C(F)(F)F)CCCc2ccccc21 (configuration not stated) is strictly below 20 nM.
Ans: 1 (yes)

Q: Does Cc1noc(=O)c2ccc(NC(=O)C(O)(CC3(C4CCCCC4)CCCc4ccccc43)C(F)(F)F)cc12 (configuration not stated) have EC50 strictly under 20 nM?
Ans: 0 (no)
